Structures can show the parent of a compound that is named as a salt.
Kindly supply the reported melting point values for the records listed here.

Q. Please report the recorded melting point for c1csc(SCc2nnc(-c3ccc(OCCCN4CCCCC4)cc3)o2)n1 (as salt: hydrochloride) [Example 226] .
A. 174 to 176 °C

Q. One more compound: O=C(O)C(=O)O.c1ccc(OCCSCc2ncc(-c3ccc(OCCCN4CCCCCCC4)cc3)o2)cc1 [Example 267]
A. 89 to 94 °C

Q. COc1cc(-c2nnc(CSCCOc3ccccc3)o2)cc(OC)c1OCCCN(C)C.O=C(O)/C=C\C(=O)O [Example 285] ?
A. 103 to 104 °C

Q. Lookup CN(C)CCCOc1ccc(-c2nnc(CCc3ccc4ccccc4c3)o2)cc1 (as salt: hydrochloride) [Example 205]
A. 208 to 210 °C

----------
Here's a batch of compounds along with measured Ki for human MCHR1 (Homo sapiens, UniProt Q99705).
Give the number; nM is assumed, so skip it.

Q. Please give the measured Ki for this compound: CN(C)CCCOc1ccc(-c2cnc(CSCCOc3ccccc3)o2)cc1
A. 4.3

Q. Continue with c1ccc(OCCSCc2ncc(-c3ccc(OCCN4CCCC4)cc3)o2)cc1
A. 5.8

Q. Same question, c1ccc(OCCSCc2ncc(-c3ccc(OCCCN4CCCCC4)cc3)o2)cc1 this time
A. 17.9

Q. CC(C)N(CCCCOc1ccc(-c2nnc(CSCCOc3ccccc3)o2)cc1)C(C)C [drawing 59] , same question.
A. 63.3

Q. Then what about the compound CN(C)CCCOc1ccc(-c2nnc(CSCc3cc4ccccc4o3)o2)cc1 ?
A. 16.1

Q. Could you do the same for O=C(NCCN1CCCCC1)Nc1ccc(-c2nnc(CSCCOc3ccccc3)o2)cc1 [drawing 42] , please?
A. 5.6

Q. And what about the compound CN1CCC[C@@H]1CCOc1ccc(-c2nnc(CSCCOc3ccccc3)o2)cc1 ?
A. 12.9

Q. Continue with CN(C)C/C=C/c1ccc(-c2nnc(CSCCOc3ccccc3)o2)cc1
A. 3.7

----------
reported_property: melting point

Q. Quick one: melting point of CN(C)CCCOc1ccc(-c2nnc(CSCCOC(C)(C)C)o2)cc1 [Example 280] ?
A. 84.5 to 85.5 °C

Q. Query O=C(NCCN1CCCC1)Nc1ccc(-c2cnc(COCc3cc4ccccc4o3)o2)cc1 [Example 255] next
A. 124 to 126 °C

Q. Would you mind doing c1ccc(OCCSCc2nnc(-c3ccc(OCCCN4CCCC4)cc3)o2)cc1 [Example 88] as well?
A. 70 °C

Q. Okay, and CC(C)N(CCCCOc1ccc(-c2nnc(CSCCOc3ccccc3)o2)cc1)C(C)C [Example 262] ?
A. 42 to 44 °C

Q. What do you get for CCN(CC)CCOc1ccc(-c2nnc(CSCCOc3ccccc3)o2)cc1 [Example 85] ?
A. 32 to 35 °C

----------
Give melting point for every item shown.

Q. Entry under review: c1ccc(OCCSCc2nnc(-c3ccc(OCCCN4CCCCCC4)cc3)o2)cc1 . Reported melting point?
A. 50 °C

Q. What do you have for CN(C)CCCOc1ccc(-c2nnc(Cc3ccc(Oc4ccccc4)cc3)o2)cc1.O=C(O)C(=O)O ?
A. 156 to 158 °C

Q. Also need CN(C)CCNC(=O)c1ccc(-c2nnc(CSCCOc3ccccc3)o2)cc1 , thanks.
A. 94 to 100 °C

Q. And for CN(C)CCCOc1ccc(-c2nnc(-c3ccc(Oc4ccccc4)cc3)o2)cc1 ?
A. 95 °C

Q. Follow-up entry: CN1CCN(c2ccc(-c3nnc(CSCCOc4ccccc4)o3)cn2)CC1.O=C(O)/C=C\C(=O)O
A. 146 to 147 °C

Q. Would you kindly repeat that for CN1CCCC(Oc2ccc(-c3nnc(CSCCOc4ccccc4)o3)cc2)CC1 (stereo not drawn) ?
A. 60 to 61 °C

Q. Query CN(C)CCCNC(=O)c1cccc(-c2nnc(CSCCOc3ccccc3)o2)c1 next
A. 88 to 90 °C

Q. Same for c1ccc(OCCSCc2nnc(-c3ccc(OCCCCN4CCCCC4)cc3)o2)cc1
A. 57 to 62 °C

Q. Continue with NC(=O)Nc1ccc(-c2nnc(CSCCOc3ccccc3)o2)cc1
A. > 220 °C
